System: SR leukemia
EXPERIMENT: NCI tumour cell line growth inhibition, 48 h
REPORTED PROPERTY: TGI

Examples with their reported TGI follow.
{"COMPOUND": "COC(=O)c1ccccc1OCc1cc(=O)oc2ccc(C)cc12", "TGI": "> 100 µM"}
{"COMPOUND": "COc1cc(-c2cc(-c3ccccc3)nc(-c3c(OC)ccc4c(C)cc(=O)oc34)c2)cc(OC)c1OC", "TGI": "> 100 µM"}
{"COMPOUND": "COc1ccc2c3c1O[C@H]1C(OC)C=CC4C(C2)N(Cc2cccs2)CCC341 (stereo partly specified)", "TGI": "> 100 µM"}
{"COMPOUND": "Cc1cc2c(cc1Cl)S(=O)(=O)OC(c1ccc([N+](=O)[O-])cc1)=N2", "TGI": "> 100 µM"}
{"COMPOUND": "Cc1ccc(N2C(=O)CS/C2=C(\\C#N)c2nc3ccccc3[nH]2)cc1", "TGI": "> 100 µM"}

Here is the next item to consider.
Bench note, SR leukemia: entry `CN(C)C(=S)/N=c1\ssc(=S)n1Cc1cccnc1` , its TGI = > 100 µM

---

Test system: MDA-N
EXPERIMENT: NCI tumour cell line growth inhibition, 48 h
REPORTED PROPERTY: TGI

Sample `CCn1c(-c2ccc(N=NNc3ccc(-c4n[nH]c(=S)n4CC)cc3)cc2)n[nH]c1=S` ; TGI observed: > 100 µM

Sample `COc1nc(C#CC2(O)CCCCC2)nc(OC)n1` ; TGI observed: 26.3 µM

Sample CCOP(=O)(OCC)C(Nc1ccc(Br)cc1)c1cccc([N+](=O)[O-])c1 (stereo not drawn) ; TGI observed: 37.2 µM

Sample `COc1ccc(C(=O)c2sc(Nc3ccc(Cl)cc3)nc2N)cc1` ; TGI observed: > 22.2 µM

Sample `O=C1NC(=S)N/C1=C\c1ccc(Br)s1` ; TGI observed: > 100 µM

Sample `NC(=O)c1cc2ccc(O)cc2oc1=Nc1ccccc1` ; TGI observed: > 100 µM

Sample `COc1ccc2c(c1)[nH]c1c(/C=C/c3ccccc3)nccc12` ; TGI observed: 37.2 µM

Sample CCCCCCCCCCCCCCCCOCC(CC(F)(F)P(=O)(OCC)OCC)OC(C)=O (stereo not drawn) ; TGI observed: 31.6 µM

Sample `CC(C)(C)OC(=O)N1CCC(C(=O)O)CC1` ; TGI observed: > 100 µM

Sample C/C=C\C(CC(=O)NCCC1CN(S(=O)(=O)c2ccc(C)cc2)c2ccccc21)CC(=O)OC (stereo not drawn) ; TGI observed: > 100 µM

Sample `O=C(c1ccc(Cl)cc1)N(C(=O)N1CCC(c2ccccc2)CC1)c1ccccc1` ; TGI observed: > 100 µM

Sample `Nc1ccc2c(SCc3ccc([N+](=O)[O-])cc3)c3ccccc3nc2c1` ; TGI observed: 31.1 µM

Sample CC(=O)O[C@H]1[C@@H]2OC(=O)[C@@](O)(CC3CCCO3)[C@@H]2CC(=O)[C@](C)(O)CC/C=C(\C)CCC[C@@H]1C (stereo partly drawn) ; TGI observed: 49.4 µM

Sample `C[C@@H](c1ccccc1)N1CN(C(=O)OCc2ccccc2)C(C)(C)CC1=O` ; TGI observed: > 100 µM

Sample CC(=O)OCC1OC(OC2CC3C(C)(C)C(OC(C)=O)CC[C@]3(C)C3CCC45CC4(CCC5[C@@H](C)C[C@H](O)C(O)C(C)(C)O)[C@]23C)C(O)C(O)C1O (stereo partly drawn) ; TGI observed: > 10 µM

Sample `CNc1ccc2c(c1)[C@@]1(C)c3ccccc3[C@@H](C2)N1C` ; TGI observed: 74.7 µM

Sample `O=C(C[n+]1ccc2ccccc2c1)c1ccc2ccc3ccccc3c2c1` ; TGI observed: 10.8 µM
